These measurements were taken from patent US4003936A.

# experimental.system: tyrosine hydroxylase (Bos taurus, UniProt P17289)
# method.notes: inhibition of tyrosine hydroxylase (method of J. Antibiot. 23, 514 (1970))
# Type: biochemical
# Design: dose or concentration left out as unconfirmed
# condition.summary: at 200 meg. (figure after the slash in the cell); read-out: Inhibition of the product (1a) to tyrosine hydroxylase
endpoint.label: inhibition

INSERT INTO results (smiles_record, experimental_system, result) VALUES
  ('Cc1ccc(CCC(=O)C2C(=O)CCC2=O)cc1', 'tyrosine hydroxylase (Bos taurus, UniProt P17289)', '44%'),
  ('CCOc1ccc(CCC(=O)C2C(=O)CCC2=O)cc1', 'tyrosine hydroxylase (Bos taurus, UniProt P17289)', '15.6%'),
  ('CC(C)c1ccc(CCC(=O)C2C(=O)CCC2=O)cc1', 'tyrosine hydroxylase (Bos taurus, UniProt P17289)', '36.8%'),
  ('CCOC(=O)c1ccc(CCC(=O)C2C(=O)CCC2=O)cc1', 'tyrosine hydroxylase (Bos taurus, UniProt P17289)', '12.8%'),
  ('O=C1CCC(=O)C1C(=O)CCc1ccc(F)cc1', 'tyrosine hydroxylase (Bos taurus, UniProt P17289)', '62%'),
  ('COc1ccccc1CCC(=O)C1C(=O)CCC1=O', 'tyrosine hydroxylase (Bos taurus, UniProt P17289)', '7.6%'),
  ('COc1cccc(CCC(=O)C2C(=O)CCC2=O)c1', 'tyrosine hydroxylase (Bos taurus, UniProt P17289)', '6.4%'),
  ('O=C1CCC(=O)C1C(=O)CCc1ccccc1F', 'tyrosine hydroxylase (Bos taurus, UniProt P17289)', '53%'),
  ('CCCOC(=O)c1ccc(CCC(=O)C2C(=O)CCC2=O)cc1', 'tyrosine hydroxylase (Bos taurus, UniProt P17289)', '4.6%'),
  ('O=C1CCC(=O)C1C(=O)CCc1cccc(C(F)(F)F)c1', 'tyrosine hydroxylase (Bos taurus, UniProt P17289)', '30.5%');

====

# method.notes: acute toxicity (LD50) in mice
# condition.summary: mouse, in vivo, ip, intraperitoneal injection, dissolved in distilled water pH 2.5
# Source text: Pharmacological properties of the new compounds of the present invention are now described. The new compounds of the present invention have been examined for their biological activities, and their inhibition to tyrosine hydroxylase are summarised in Table 2 later. […]
endpoint.label: LD50 (mg/kg)

INSERT INTO measurements (molecule, number) VALUES
  ('O=C1CCC(=O)C1C(=O)CCc1ccccc1O [Example 38]', 283);

====

Form field: inhibition (one value per entry).
# experimental.system: tyrosine hydroxylase (Bos taurus)
# method.notes: inhibition of tyrosine hydroxylase (method of J. Antibiot. 23, 514 (1970))
# Assay type: biochemical
# Set-up: dose or concentration left out as unconfirmed
# condition.summary: at 200 meg. (figure after the slash in the cell); read-out: Inhibition of the product (1a) to tyrosine hydroxylase
endpoint.label: inhibition (%)

INSERT INTO measurements (molecule, number) VALUES
  ('COC(=O)c1ccc(CCC(=O)C2C(=O)CCC2=O)cc1 [Example 50]', 41),
  ('N#Cc1ccc(CCC(=O)C2C(=O)CCC2=O)cc1 [Example 57]', 77.4),
  ('O=C1CCC(=O)C1C(=O)CCc1cccc(Br)c1 [Example 53]', 50.7),
  ('CN(C)c1ccc(CCC(=O)C2C(=O)CCC2=O)cc1 [Example 58]', 10.1);

====

The following compounds are listed with their measured inhibition at 0.1 mg values.
# experimental.system: tyrosine hydroxylase (Bos taurus, UniProt P17289)
# Sequence (P17289 1-491): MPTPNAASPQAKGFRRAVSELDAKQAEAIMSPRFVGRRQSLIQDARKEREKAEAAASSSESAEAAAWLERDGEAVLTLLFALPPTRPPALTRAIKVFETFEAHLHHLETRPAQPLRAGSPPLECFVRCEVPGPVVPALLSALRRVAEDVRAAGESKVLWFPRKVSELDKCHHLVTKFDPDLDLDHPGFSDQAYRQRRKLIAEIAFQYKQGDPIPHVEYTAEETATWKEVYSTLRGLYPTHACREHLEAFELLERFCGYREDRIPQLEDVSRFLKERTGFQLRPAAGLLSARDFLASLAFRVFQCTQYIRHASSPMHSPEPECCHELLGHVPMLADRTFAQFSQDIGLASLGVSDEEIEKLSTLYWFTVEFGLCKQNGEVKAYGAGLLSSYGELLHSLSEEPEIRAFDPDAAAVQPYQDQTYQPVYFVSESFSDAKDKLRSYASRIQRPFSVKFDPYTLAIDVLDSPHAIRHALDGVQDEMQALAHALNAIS
# method.notes: inhibition of tyrosine hydroxylase (method of J. Antibiot. 23, 514 (1970))
# Assay type: biochemical
# condition.summary: at 100 meg. (figure after the slash in the cell); read-out: Inhibition of the product (1a) to tyrosine hydroxylase
endpoint.label: inhibition at 0.1 mg (%)

INSERT INTO results (smiles_record, endpoint_label, number) VALUES
  ('CC(=O)Oc1ccccc1CCC(=O)C1C(=O)CCC1=O', 'inhibition at 0.1 mg', 10),
  ('O=C1CCC(=O)C1C(=O)CCc1cccc(O)c1', 'inhibition at 0.1 mg', 23),
  ('O=C1CCC(=O)C1C(=O)CCc1cccc(F)c1', 'inhibition at 0.1 mg', 36);

====

# experimental.system: tyrosine hydroxylase (Bos taurus, UniProt P17289)
# method.notes: inhibition of tyrosine hydroxylase (method of J. Antibiot. 23, 514 (1970))
# Type: biochemical
# condition.summary: at 100 mcg/cc
endpoint.label: inhibition to tyrosine hydroxylase (%)

INSERT INTO assay_data (compound, endpoint_label, quantity_unit, number) VALUES
  ('O=C1CCC(=O)C1C(=O)CCc1ccc(O)c(O)c1 [Example 66]', 'inhibition to tyrosine hydroxylase', '%', 85),
  ('O=C1CCC(=O)C1C(=O)CCc1ccc(Cl)c(Cl)c1 [Example 62]', 'inhibition to tyrosine hydroxylase', '%', 45),
  ('COc1cccc(CCC(=O)C2C(=O)CCC2=O)c1O [Example 65]', 'inhibition to tyrosine hydroxylase', '%', 5),
  ('O=C1CCC(=O)C1C(=O)CCc1ccc2c(c1)OCO2 [Example 63]', 'inhibition to tyrosine hydroxylase', '%', 22.5);

====

# method.notes: acute toxicity (LD50) in mice
# condition.summary: mouse, in vivo, oral administration, dissolved in distilled water pH 2.5
endpoint.label: LD50 (mg/kg)

INSERT INTO results (smiles_record, endpoint_label, quantity_unit, number) VALUES
  ('O=C1CCC(=O)C1C(=O)CCc1ccccc1O', 'LD50', 'mg/kg', 550);
